Test system: CAL-148
experiment-notes: normalised response (% of control), CellTiter-Glo; higher = more viable cells (100 = DMSO, 0 = benzethonium chloride kill control)
experimental-conditions: incubation time: 72 h
Recorded normalised response, one value per entry.
All answers are understood in %, so give the number only.

Use the examples below as a reference point.
[[record]]
compound = "Cn1c(Nc2ccc(C(F)(F)F)cc2)nc2cc(Oc3ccnc(-c4ncc(C(F)(F)F)[nH]4)c3)ccc21 [RAF265] (1000 nM)"
measured_target = "CAL-148"
reading = 99.9

[[record]]
compound = "CS(=O)(=O)c1ccc(C2=C(c3ccccc3)C(=O)OC2)cc1 [Rofecoxib] (10000 nM)"
measured_target = "CAL-148"
reading = 119

[[record]]
compound = "CCC1=C[C@@H]2CN(C1)Cc1c([nH]c3ccccc13)[C@@](C(=O)OC)(c1cc3c(cc1OC)N(C)[C@H]1[C@@](O)(C(=O)OC)[C@H](OC(C)=O)[C@]4(CC)C=CCN5CC[C@]31[C@@H]54)C2 [Vinorelbine] (10000 nM)"
measured_target = "CAL-148"
reading = 49.6


Now look at this entry.
Problem: Entry under review: Clc1ccc(Nc2nnc(Cc3ccncc3)c3ccccc23)cc1 [Vatalanib] (10000 nM) . Reported normalised response?
Result: 105

---

System: DU-4475
experiment-notes: normalised response (% of control), CellTiter-Glo; higher = more viable cells (100 = DMSO, 0 = benzethonium chloride kill control)
experimental-conditions: incubation time: 72 h
Recorded normalised response, one value per entry.
All answers are understood in %, so give the number only.

Use the examples below as a reference point.
[[record]]
molecule = "Oc1nc(-c2ccc(C(F)(F)F)cc2)nc2c1CSCC2 [XAV-939] (10000 nM)"
readout_name = "normalised response"
units_text = "%"
reading = 87.3

[[record]]
molecule = "O=C(CCCCCCC(=O)Nc1ccc([C@H]2O[C@@H](CSc3nc(-c4ccccc4)c(-c4ccccc4)o3)C[C@@H](c3ccc(CO)cc3)O2)cc1)NO [Tubacin] (10000 nM)"
readout_name = "normalised response"
units_text = "%"
reading = 70.7

[[record]]
molecule = "N[C@@H](CSC(c1ccccc1)(c1ccccc1)c1ccccc1)C(=O)O [S-trityl-L-cysteine] (40000 nM)"
readout_name = "normalised response"
units_text = "%"
reading = 92.3


Problem: Entry under review: O=C1CCC(N2C(=O)c3ccccc3C2=O)C(=O)N1 (stereo not drawn) [Thalidomide] (10000 nM) . Reported normalised response?
Result: 93.3

Problem: // same read-out, input: CC(=O)Nc1ccc(C(=O)Nc2ccccc2N)cc1 [Tacedinaline] (1000 nM)
Result: 98

Problem: // same read-out, input: CC(C)Cn1cnc2c(N)nc3ccccc3c21 [Imiquimod] (2500 nM)
Result: 103

Problem: // same read-out, input: NC(=O)Nc1cc(-c2cccc(F)c2)sc1C(=O)N[C@H]1CCCNC1 [AZD7762] (1000 nM)
Result: 89.3

Problem: // same read-out, input: C=C(c1ccc(C(=O)O)cc1)c1cc2c(cc1C)C(C)(C)CCC2(C)C [Bexarotene] (10000 nM)
Result: 100

---

Test system: HCC1143
experiment-notes: drug sensitivity score (DSS), CellTiter-Blue viability (DSS (AUC-based score)); higher = stronger viability inhibition; extreme values may be limits of the assay
experimental-conditions: incubation time: 72 h
Recorded drug sensitivity score, one value per entry.
Please give the numeric answer without any surrounding text.

Use the examples below as a reference point.
[[record]]
compound = "CNCc1ccc(-c2[nH]c3cc(F)cc4c3c2CCNC4=O)cc1"
measured_target = "HCC1143"
reading = 0

[[record]]
compound = "CCN(CCCOc1ccc2c(Nc3cc(CC(=O)Nc4cccc(F)c4)[nH]n3)ncnc2c1)CCOP(=O)(O)O"
measured_target = "HCC1143"
reading = 0

[[record]]
compound = "CC(C)Cn1cnc2c(N)nc3ccccc3c21"
measured_target = "HCC1143"
reading = 0

[[record]]
compound = "O=P1(NCCCl)OCCCN1CCCl (stereo not given) [Ifosfamide]"
measured_target = "HCC1143"
reading = 0

[[record]]
compound = "CCC1(c2ccc(N)cc2)CCC(=O)NC1=O (stereo not given) [Aminoglutethimide]"
measured_target = "HCC1143"
reading = 0


Problem: Entry under review: C[C@@H](Oc1cc(-c2cnn(C3CCNCC3)c2)cnc1N)c1c(Cl)ccc(F)c1Cl . Reported drug sensitivity score?
Result: 2.03

Problem: // same read-out, input: CC(=O)Nc1ccc(C(=O)Nc2ccccc2N)cc1
Result: 0

Problem: // same read-out, input: C[C@]12CC[C@@H]3c4ccc(O)cc4C[C@@H](CCCCCCCCC[S+]([O-])CCCC(F)(F)C(F)(F)F)[C@H]3[C@@H]1CC[C@@H]2O (stereo not given in full)
Result: 0

Problem: // same read-out, input: Oc1nc(-c2ccc(C(F)(F)F)cc2)nc2c1CSCC2
Result: 7.23

Problem: // same read-out, input: CN[C@@H]1C[C@H]2O[C@@](C)([C@@H]1OC)n1c3ccccc3c3c4c(c5c6ccccc6n2c5c31)C(=O)N[C@H]4O
Result: 22.2

---

Tested on: BT-474
experiment-notes: drug sensitivity score (DSS), CellTiter-Blue viability (DSS (AUC-based score)); higher = stronger viability inhibition; extreme values may be limits of the assay
experimental-conditions: incubation time: 72 h
readout-name: drug sensitivity score
Please give the numeric answer without any surrounding text.

Use the examples below as a reference point.
[[record]]
compound = "C[C@@H](Oc1cc(-c2cnn(C3CCNCC3)c2)cnc1N)c1c(Cl)ccc(F)c1Cl [Crizotinib]"
reading = 5.02

[[record]]
compound = "CCN(CCCOc1ccc2c(Nc3cc(CC(=O)Nc4cccc(F)c4)[nH]n3)ncnc2c1)CCOP(=O)(O)O [Barasertib]"
reading = 0

[[record]]
compound = "CC(C)Cn1cnc2c(N)nc3ccccc3c21 [Imiquimod]"
reading = 0

[[record]]
compound = "C#Cc1cccc(Nc2ncnc3cc(OCCOC)c(OCCOC)cc23)c1 [Erlotinib]"
reading = 4.23

[[record]]
compound = "O=P1(NCCCl)OCCCN1CCCl (stereo not drawn) [Ifosfamide]"
reading = 0


Problem: Entry under review: Clc1ccc(Nc2nnc(Cc3ccncc3)c3ccccc23)cc1 [Vatalanib] . Reported drug sensitivity score?
Result: 0

Problem: // same read-out, input: Cn1c(CCCC(=O)O)nc2cc(N(CCCl)CCCl)ccc21 [Bendamustine]
Result: 0

Problem: // same read-out, input: CO[C@H]1/C=C\C=C(/C)C(=O)NC2=CC(=O)C(NCCN(C)C)=C(C[C@@H](C)C[C@H](OC)[C@H](O)[C@@H](C)/C=C(\C)[C@@H]1OC(N)=O)C2=O [Alvespimycin]
Result: 14.6

---

Tested on: CAL-120
experiment-notes: normalised viability (% of control), CellTiter-Blue; higher = more viable cells (about 100 = DMSO control)
experimental-conditions: 1 nM; incubation time: 72 h
Recorded normalised viability, one value per entry.
All answers are understood in %, so give the number only.

[[record]]
compound = "Cc1ccc(C(=O)N(CCCN)[C@@H](c2oc3cc(Cl)ccc3c(=O)c2Cc2ccccc2)C(C)C)cc1"
readout_name = "normalised viability"
reading = 53

[[record]]
compound = "CO[C@H]1/C=C\\C=C(/C)C(=O)NC2=CC(=O)C(NCCN(C)C)=C(C[C@@H](C)C[C@H](OC)[C@H](O)[C@@H](C)/C=C(\\C)[C@@H]1OC(N)=O)C2=O"
readout_name = "normalised viability"
reading = 108

[[record]]
compound = "NC(=O)Nc1cc(-c2cccc(F)c2)sc1C(=O)N[C@H]1CCCNC1"
readout_name = "normalised viability"
reading = 118


Now look at this entry.
Problem: Request: normalised viability, test system CAL-120, entry COc1cc2nccc(Oc3ccc(NC(=O)C4(C(=O)Nc5ccc(F)cc5)CC4)cc3)c2cc1OC [Cabozantinib]
Result: 85.5

---

Test system: CAL-120
experiment-notes: normalised viability (% of control), CellTiter-Blue; higher = more viable cells (about 100 = DMSO control)
experimental-conditions: 10000 nM; incubation time: 72 h
Recorded normalised viability, one value per entry.
All answers are understood in %, so give the number only.

Use the examples below as a reference point.
[[record]]
compound = "CCC1=C[C@@H]2CN(C1)Cc1c([nH]c3ccccc13)[C@@](C(=O)OC)(c1cc3c(cc1OC)N(C)[C@H]1[C@@](O)(C(=O)OC)[C@H](OC(C)=O)[C@]4(CC)C=CCN5CC[C@]31[C@@H]54)C2"
readout_name = "normalised viability"
units_text = "%"
reading = 25.4

[[record]]
compound = "CC1(C)NC(=O)N(c2ccc([N+](=O)[O-])c(C(F)(F)F)c2)C1=O [Nilutamide]"
readout_name = "normalised viability"
units_text = "%"
reading = 116

[[record]]
compound = "COc1cc([C@@H]2c3cc4c(cc3[C@@H](O[C@@H]3O[C@@H]5CO[C@@H](C)O[C@H]5[C@H](O)[C@H]3O)[C@H]3COC(=O)[C@H]23)OCO4)cc(OC)c1O [Etoposide]"
readout_name = "normalised viability"
units_text = "%"
reading = 59.1

[[record]]
compound = "C[C@]12CC[C@@H]3c4ccc(O)cc4C[C@@H](CCCCCCCCC[S+]([O-])CCCC(F)(F)C(F)(F)F)[C@H]3[C@@H]1CC[C@@H]2O (stereo not given in full)"
readout_name = "normalised viability"
units_text = "%"
reading = 87.6


Now look at this entry.
Problem: Request: normalised viability, test system CAL-120, entry N.N.[Cl][Pt][Cl] [Cisplatin]
Result: 102
